biological target: 2-amino-4-hydroxy-6-hydroxymethyldihydropteridine pyrophosphokinase (Escherichia coli (strain K12), UniProt P26281); test: Binding affinity to GST-tagged Escherichia coli HPPK expressed in Escherichia coli by SPR assay based alternative equilibrium affinity method in presence of AMP-CPP
pKd: −log10 of the molar value.
Quick rule for you: pKd at 5 or higher means Criterion met, lower means Criterion not met.

Examples with answers:
INSERT INTO measurements (molecular_string, discrete_label) VALUES
  ('Nc1nc2[nH]c(S)nc2c(=O)[nH]1', 'Criterion not met'),
  ('Cc1cccc(C(=O)CSc2nc3nc(N)[nH]c(=O)c3[nH]2)c1', 'Criterion met'),
  ('Cc1ccccc1C(=O)CSc1nc2nc(N)[nH]c(=O)c2[nH]1', 'Criterion not met'),
  ('Nc1nc2nc[nH]c2c(=O)[nH]1', 'Criterion not met');

Tell me whether pKd is at least 5 here: N#Cc1ccc(CSc2nc3nc(N)[nH]c(=O)c3[nH]2)cc1
Criterion not met

###

Molecular target: 2-amino-4-hydroxy-6-hydroxymethyldihydropteridine pyrophosphokinase (Escherichia coli (strain K12), UniProt P26281)
Sequence (P26281 whole entry): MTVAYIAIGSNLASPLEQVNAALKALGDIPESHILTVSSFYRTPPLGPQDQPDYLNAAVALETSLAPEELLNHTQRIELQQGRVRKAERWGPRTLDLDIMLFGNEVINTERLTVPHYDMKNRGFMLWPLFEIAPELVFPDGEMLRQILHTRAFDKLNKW
Assay: Inhibition of GST-tagged Escherichia coli HPPK expressed in Escherichia coli using 6-hydroxymethyl-7,8-dihydropterin hydrochloride as substrate after 20 mins by luminescence assay
MEASURED PROPERTY: IC50 (µM)
Give bare numbers, in µM.

Worked cases, answers included:
INSERT INTO measurements (molecular_string, measured_property, u, test_value) VALUES
  ('Cc1cccc(C(=O)CSc2nc3nc(N)[nH]c(=O)c3[nH]2)c1', 'IC50', 'µM', 51),
  ('N#Cc1ccc(C(=O)CSc2nc3nc(N)[nH]c(=O)c3[nH]2)cc1', 'IC50', 'µM', 88);

Continue with the next compound.
Please report the recorded IC50 for Nc1nc2nc(SCC(=O)c3ccc(F)cc3)[nH]c2c(=O)[nH]1 .
79

###

Target: 2-amino-4-hydroxy-6-hydroxymethyldihydropteridine pyrophosphokinase (Escherichia coli (strain K12)) (UniProt P26281)
Sequence (whole entry): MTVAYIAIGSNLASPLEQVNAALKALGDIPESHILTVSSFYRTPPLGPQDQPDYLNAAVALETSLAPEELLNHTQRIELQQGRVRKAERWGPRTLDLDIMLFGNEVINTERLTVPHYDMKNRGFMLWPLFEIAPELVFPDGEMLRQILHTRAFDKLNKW
Test: Inhibition of GST-tagged Escherichia coli HPPK expressed in Escherichia coli using 6-hydroxymethyl-7,8-dihydropterin hydrochloride as substrate at 250 uM after 20 mins by luminescence assay
MEASURED PROPERTY: inhibition (%)
Give bare numbers, in %.

Worked examples follow.
INSERT INTO assay_data (compound, test_value) VALUES
  ('Nc1nc2nc(SCC(=O)c3ccc(OCCN4CCOCC4)cc3)[nH]c2c(=O)[nH]1', 5),
  ('Cc1ccc(C(=O)C(C)Sc2nc3nc(N)[nH]c(=O)c3[nH]2)cc1 (centres undefined)', 13),
  ('Nc1nc2[nH]c(S)nc2c(=O)[nH]1', 18);

Now look at this entry.
Request the reported inhibition associated with N#Cc1ccc(CSc2nc3nc(N)[nH]c(=O)c3[nH]2)cc1
53
